// provenance: patent US20170052184A1

Molecular target: T1, HCV Core1-169 (hepatitis C virus (HCV-1), UniProt P26664 1-169)
T1 sequence: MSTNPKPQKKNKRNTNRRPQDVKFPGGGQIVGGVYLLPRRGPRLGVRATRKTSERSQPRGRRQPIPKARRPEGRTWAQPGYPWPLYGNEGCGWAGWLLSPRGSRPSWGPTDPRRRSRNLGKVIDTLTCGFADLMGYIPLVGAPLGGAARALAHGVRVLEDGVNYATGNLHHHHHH
Assay: SPR sandwich, capture mAb C11-3
# reported expected percent binding; entries follow

BINDER: HCV 208A-557 (antibody, V domains shown) VH: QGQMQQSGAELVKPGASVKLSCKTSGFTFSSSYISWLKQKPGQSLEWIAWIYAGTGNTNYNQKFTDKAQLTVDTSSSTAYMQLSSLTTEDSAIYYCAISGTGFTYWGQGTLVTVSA VL: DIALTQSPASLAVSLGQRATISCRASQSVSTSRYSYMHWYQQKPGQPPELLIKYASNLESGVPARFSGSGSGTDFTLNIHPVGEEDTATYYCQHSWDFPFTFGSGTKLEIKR
QUALIFYING SIGN: =
expected percent binding / %: 17.7
//
BINDER: HCV 208A-638 (antibody, V domains shown) VH: QGQLQQPGAEFVKPGASLKLSCRASGYTFTSYWIHWVKQRPGQGLEWIGEVDPSDSYINQNEKFRGKATLTVDKSSSTAYMQLGSLTSEDSAVYYCARHYYGVLDSWGQGTALTVSS VL: QIVLTQSPTIMSASLGERVTMTCTASSSVSSSYLHWFQQKPGSSPKLWIYSTSNLASGVPPRFSGSGSGTSYSLSISSVEAEDVATYYCLQFHRSPWTFGGGAKLEIKR
QUALIFYING SIGN: =
expected percent binding / %: 14.1
//
BINDER: HCV 208B-281 (antibody, V domains shown) VH: QGQLQQSGAELVKPGASVKLSCKTSGFTFSSSYISWLKQRPGQSLEWIAWIYAGTGGTNYNQKFTDKAQLTVDTSSSTAYMQFSSLTTEDSAIYYCAISGTGFIYWGQGTLVTVSA VL: DVLMTQTPLSLPVSLGDQASISCRSSQSLVHNNGNTYLEWFLQKPGQSPKLLIYKVSNRFSGVPDRFSGSGSGTDFTLKISRVEAEDLGVYYCFQGSHVPFTFGSGTKLEIKR
QUALIFYING SIGN: ≤
expected percent binding / %: 1
